System: NCI-H460 lung
Measurement Protocol: NCI-60 one-dose screen, 48 h (100 = growth as untreated, 0 = no growth, -100 = all killed)
Details: 10 µM unless noted
About 83,000 compounds went through this panel and 20% of them were active in at least one assay; those are over-represented in the sample as a whole.
Quantity Measured: growth (%)
Report as a plain number; the unit % is understood.

Req: Provide only the value of recorded growth for `O=c1[nH]c(=S)c2c(n1CCCO)CCC2`
Resp: 107

Req: Provide only the value of recorded growth for O=C1C2CC3C(CC2C(=O)[N]1[Sn]([c]1ccccc1)([c]1ccccc1)[c]1ccccc1)C1(Cl)C(Cl)=C(Cl)C3(Cl)C1(Cl)Cl (configuration not stated)
Resp: -81.6

Req: Provide only the value of recorded growth for `COc1ccccc1CNCCCCCCCCCCCCN1C(=O)c2ccc3c4c(ccc(c24)C1=O)C(=O)N(CCCCCCCCCCCCNCc1ccccc1OC)C3=O`
Resp: 35.5

Req: Provide only the value of recorded growth for `CCCCC(=O)N/N=C/c1cc(I)cc(I)c1O`
Resp: 28.1

Req: Provide only the value of recorded growth for `Cc1cccc2c(=O)c3c(sc12)c(NCCCN)nc1ccccc13`
Resp: -52.7

Req: Provide only the value of recorded growth for `CN1CCc2c(c3ccccc3c3ccccc23)C1`
Resp: 27.7

Req: Provide only the value of recorded growth for `O=c1c2c(=NCCN3CCCC3)cc3c(=O)n(CCCN4CCOCC4)c(=O)c4c(-c5ccc(CN6CCCC6)cc5)cc(c(O)n1CCCN1CCOCC1)c2c4-3`
Resp: -62.9

Req: Provide only the value of recorded growth for `COc1cc(-c2ccc3cc(OC)c(OC)c(OC)c3c2)cc(OC)c1OC`
Resp: 60.3

Req: Provide only the value of recorded growth for O=C1NC(=O)C2(CCCC2C(=O)O)N1 (configuration not stated)
Resp: 106

Req: Provide only the value of recorded growth for `COCCOC1=C(Cl)C(=O)c2ccccc2C1=O`
Resp: 14.3

Req: Provide only the value of recorded growth for `COc1cc(/C=C2\C(=O)Nc3ccccc32)cc(OC)c1O`
Resp: 40.1

Req: Provide only the value of recorded growth for `COc1ccc(-c2nc3sccn3c2/C=C/C(=O)c2cc(OC)c(OC)c(OC)c2)cc1OC`
Resp: 6.91

Req: Provide only the value of recorded growth for COc1c(O)c2c3c(c1OC)-c1ccccc1CC3N(S(=O)(=O)c1ccc(C)cc1)CC2 (configuration not stated)
Resp: 23.3

Req: Provide only the value of recorded growth for `O=C(c1ccc2ncc(-c3nc(NC4CC4)ncc3F)n2c1)N1CCOCC1`
Resp: 4.24

Req: Provide only the value of recorded growth for `Cc1cc(=O)[nH]n1-c1cc(Cl)ccc1N`
Resp: 113

Req: Provide only the value of recorded growth for `COC(=O)c1ccc(C(=O)Nc2ccccc2N)cc1`
Resp: 63.3

Req: Provide only the value of recorded growth for `CCCCC/C=C\C/C=C/CCCCCCCCNC(=O)Nc1ccc([N+](=O)[O-])cc1`
Resp: 84.4

Req: Provide only the value of recorded growth for `Cn1c(=O)c(S(=O)(=O)c2ccccc2)cc2ccc3c(cnn3-c3ccc(Cl)cc3)c21`
Resp: 80.7

Req: Provide only the value of recorded growth for `COC(=O)c1c2c(c(C)[n+]([O-])c1C)C(=O)C=C(NCc1ccc(F)cc1)C2=O`
Resp: -0.65

Req: Provide only the value of recorded growth for `Cc1nn2c(-c3nc4ccc(Cl)cc4[nH]3)c(-c3ccc(F)cc3)nc2s1`
Resp: 97.5

Req: Provide only the value of recorded growth for `CN1CCN(CCCn2c3c(sc4ncccc43)c(=O)n3nnc(-c4ccccc4)c23)CC1`
Resp: -70.7

Req: Provide only the value of recorded growth for `O=C1N/C(=C\c2ccccc2)c2ncccc21`
Resp: 113
